# Test system: KM12 colon
# run description: NCI tumour cell line growth inhibition, 48 h
measurement type: GI50

COc1ccc(-c2oc(=O)ccc2C#Cc2cc(OC)c(OC)c(OC)c2)cc1O : 50000 nM
CCN1CCN(c2nc(NNC(=O)Cc3ccccc3)nc(N3CCN(C(c4ccccc4)c4ccccc4)CC3)n2)CC1 : 2070 nM

Given the compound Cc1ccc2c(c1)C(=O)c1c-2n(CCCN)c(=O)c2cc([N+](=O)[O-])ccc12 , what is its reported GI50?
433 nM

* * *

# Test system: SR leukemia
# run description: NCI tumour cell line growth inhibition, 48 h
The reader will find reported TGI values listed item by item below.
Enter your answer as a number in µM; do not include the unit.

Given the molecule O=C(/C=C/c1ccc(C(F)(F)F)cc1)c1ccc(Nc2nc(NCCO)nc(NCCO)n2)cc1 , what is its reported TGI?
7.11

Further, for NC(=O)c1cn(C2OC(CO)C(O)C2O)c2ncnc(N)c12 (stereo not given) ?
0.0946

* * *

# Test system: SK-MEL-5 melanoma
# run description: NCI tumour cell line growth inhibition, 48 h
The reader will find reported TGI values listed item by item below.

Worked examples, 2 molecules total:
C#CCN1C(=O)/C(=c2\sc3n(c2=O)C2C(NN=3)N(CC)C(=O)N2CC)c2ccccc21 (stereo not drawn) : > 85.9 µM
O=C(C1=C(C(=O)c2ccccc2)SC2(S1)C(C(=O)c1ccccc1)=C(C(=O)c1ccccc1)Sc1c2ssc1=O)c1ccccc1 : > 100 µM

Given the molecule N/C(=N\NS(=O)(=O)c1ccccc1)Oc1ccc(Cl)cc1 , what is its reported TGI?
> 100 µM

* * *

# System: MOLT-4 leukemia
# run description: NCI tumour cell line growth inhibition, 48 h
measurement type: TGI

COc1cc(-c2cc(-c3ccc(N(C)C)cc3)nc(N3CCOCC3)c2C#N)cc(OC)c1OC : > 100 µM

Given the compound Cc1nc(C)c(C(=O)Nc2cccc3c2C(=O)NC3=O)cc1C(=O)Nc1cccc2c1C(=O)NC2=O , what is its reported TGI?
> 100 µM

Further, for COc1ccc(-c2ccc3c(NC(=O)C4CC4)n[nH]c3n2)cc1 ?
> 25 µM

Further, for CC(C)[C@@H]1C=C(c2ccccc2)c2ccccc2C1C(C#N)(C#N)C(C)C (stereo partly drawn) ?
> 100 µM

Further, for CCOC(=O)c1cc2c(OC(C)=O)ccc(OC(C)=O)c2s1 ?
> 24 µM

* * *

# Test system: IGROV1 ovarian
# run description: NCI tumour cell line growth inhibition, 48 h
measurement type: TGI (µM)
Enter your answer as a number in µM; do not include the unit.

N#CC1=C(N)C(C#N)(C#N)C(c2ccc(F)cc2)C=C1C1CC1 (stereo not given) : 25.5

Given the compound COc1cc([C@@H]2c3cc4c(cc3[C@@H](NC(=O)c3ccc(N)cc3)C3COC(=O)[C@@H]32)OCO4)cc(OC)c1O (stereo not given in full) , what is its reported TGI?
20.2

Further, for CCN1CCN(c2nc(NNC(=O)Cc3ccccc3)nc(N3CCN(C(c4ccccc4)c4ccccc4)CC3)n2)CC1 ?
5.02

Further, for CCN(CC)CCN1C(=O)c2c(c(C)c3c(oc4cc(O)ccc43)c2C)C1=O ?
3.17

* * *

# System: SF-539 CNS
# run description: NCI tumour cell line growth inhibition, 48 h
The reader will find reported TGI values listed item by item below.

Worked examples, 2 molecules total:
CCOC(=O)c1cc2c(OC(C)=O)ccc(OC(C)=O)c2s1 : 3.36 µM
CC(=O)N(CN1C(=O)CCC1C(=O)O)c1ccccc1 (stereo not drawn) : > 100 µM

Given the molecule COc1cc(-c2cc(-c3ccc(N(C)C)cc3)nc(N3CCOCC3)c2C#N)cc(OC)c1OC , what is its reported TGI?
> 54.8 µM
